tested.target: human RORγt LBD (Homo sapiens)
Construct: expressed in transfected cells
Sequence (P51449 258-518): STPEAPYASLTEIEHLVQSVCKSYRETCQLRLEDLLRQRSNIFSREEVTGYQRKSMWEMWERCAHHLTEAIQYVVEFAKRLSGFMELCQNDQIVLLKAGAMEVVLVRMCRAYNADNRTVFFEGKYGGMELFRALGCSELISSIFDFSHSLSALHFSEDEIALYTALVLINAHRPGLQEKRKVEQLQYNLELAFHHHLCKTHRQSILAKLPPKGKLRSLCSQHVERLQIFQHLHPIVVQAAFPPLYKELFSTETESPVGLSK
procedure.details: RORγt reporter assay (GAL4-RORγt LBD luciferase in HEK293T cells)
Format: cell-based
condition.description: HEK-293T, read-out: RORγt reporter Assay, % inhibition @ 6 μM, HEK293T cells, 6 μM compound
property.measured: inhibition at 6 µM (%)

State the recorded inhibition at 6 µM for this entry: CCc1nc2ccc(C(O)(c3ccncc3)c3cncn3C)cc2c(N(C)C)c1-c1ccccc1 (stereo not shown) [Example 98]
98

May I ask what inhibition at 6 µM has been recorded for CN(C)c1nc2ccc(C(O)(c3cccnc3)c3cccc(Cl)c3)cc2c(Cl)c1-c1ccccc1 (stereo not shown) [Example 41] ?
98

(1) OC(c1ccncc1)(c1ccc2nc(Cl)c(-c3ccccc3)c(Cl)c2c1)c1ccccn1 (stereo not shown) [Example 27]
(2) COc1cccc(C(O)(c2cccnc2)c2ccc3ncc(-c4ccccc4)c(Cl)c3c2)c1 (stereo not shown) [Example 58]
From the recorded data, which exceeds the other in inhibition at 6 µM: 1 or 2 ? // caller expects the label of the chosen entry
1
(1: 75%, 2: 40%)

* * *

tested.target: human RORγt ligand binding domain (RORγt LBD) (Homo sapiens)
Construct: His-tag (N); TurboTEV protease cleavage site (ENLYFQG) (N)
Sequence (P51449 with tags, fused parts or gaps): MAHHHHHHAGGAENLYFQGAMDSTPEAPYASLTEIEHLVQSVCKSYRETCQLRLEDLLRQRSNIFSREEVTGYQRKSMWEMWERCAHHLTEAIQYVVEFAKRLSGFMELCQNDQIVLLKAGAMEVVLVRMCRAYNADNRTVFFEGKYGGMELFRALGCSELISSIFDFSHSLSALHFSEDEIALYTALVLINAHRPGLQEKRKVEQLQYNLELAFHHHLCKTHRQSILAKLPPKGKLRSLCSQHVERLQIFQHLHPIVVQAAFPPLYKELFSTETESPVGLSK
procedure.details: RORγt ThermoFluor assay (thermal shift, ligand binding affinity)
condition.description: estimated from concentration response of thermal shift
property.measured: Kd (nM)

Example cases with answers are listed next.
Form field: reported Kd of CCN1CCC(C(O)(c2ccccc2)c2ccc3nc(C(F)(F)F)c(-c4ccccc4)c(C(F)(F)F)c3c2)CC1 (stereo not shown) [Example 168]
3300

Query: Kd; subject: COc1nc2c(C)cc(C(O)(c3ccc(F)cc3)c3cncn3C)cc2c(Cl)c1-c1cccc(F)c1 (single isomer, unassigned) [Example 178b]
21000

What measured Kd goes with CCc1nc2ccc(C(O)(c3ccc(F)cc3)c3cccnc3)cc2c(Cl)c1-c1ccccc1 (stereo not shown) [Example 30] ?
33

Param item = Cn1cncc1C(O)(c1ccncc1)c1ccc2nc(Cl)c(-c3ccccc3)c(N3CCC(O)CC3)c2c1 (stereo not shown) [Example 73] ; retrieve measured Kd.
18

Consider the compound Cc1cc(C(O)(c2ccc(C(F)(F)F)nc2)c2cncn2C)cc2c(C#N)c(-c3ccc(F)cc3)c(C#N)nc12 (single isomer, unassigned) [Example 184b] and give its measured Kd.
2500

(P) Cn1cncc1C(O)(c1ccc2nc(C(F)(F)F)c(-c3ccccc3)c(C(F)(F)F)c2c1)c1ccccn1 (single isomer, unassigned) [Example 185b]
(Q) Cn1cncc1C(O)(c1cccnc1)c1cc(F)c2nc(Cl)c(-c3ccccc3)c(Cl)c2c1 (stereo not shown) [Example 154]
(R) Cn1cncc1C(O)(c1ccncc1)c1ccc2nc(N3CCC(O)CC3)c(-c3ccccc3)c(Cl)c2c1 (stereo not shown) [Example 72]
(S) Cc1cc(C(O)(c2ccc3nc(Cl)c(-c4ccccc4)c(Cl)c3c2)c2nccn2C)cc(Cl)n1 (stereo not shown) [Example 46]
(T) Cn1cncc1C(O)(c1ccc2nc(C(F)(F)F)c(-c3ccccc3)c(C(F)(F)F)c2c1)c1ccccn1 (racemic) [Example 185a]
Sort the compounds on Kd; start with the lowest figure. Output the labels ranked as instructed.
P, T, Q, S, R
(P: 29 nM, T: 74 nM, Q: 120 nM, S: 4000 nM, R: 8500 nM)

(A) COc1nc2c(C)cc(C(O)(c3ccc(C(F)(F)F)nc3)c3cncn3C)cc2c(Cl)c1-c1cccc(F)c1 (single isomer, unassigned) [Example 177b]
(B) Cc1ccc(C(O)(c2cc(C)c3nc(Cl)c(-c4ccccc4)c(Cl)c3c2)c2sccc2C)cn1 (stereo not shown) [Example 158]
(C) O=C(O)C(F)(F)F.OC(c1cccnc1)(c1cccc(Cl)c1)c1ccc2nc(C(F)(F)F)c(-c3ccccc3)c(C(F)(F)F)c2c1 (stereo not shown) [Example 165]
Hi! Can you put these in order of Kd, lowest number first? Lab note: record answer as labels in requested order.
C, A, B
(C: 2.4 nM, A: 22 nM, B: 2000 nM)

(a) CCN(CC)c1nc2ccc(C(O)(c3ccncc3)c3cncn3C)cc2c(C)c1-c1ccccc1 (stereo not shown) [Example 102]
(b) CN(C)c1c(-c2ccccc2)c(Cl)nc2ccc(C(O)(c3ccc(F)cc3)c3cccnc3)cc12 (stereo not shown) [Example 39]
(c) OC(c1ccncc1)(c1ccc2nc(Cl)c(-c3ccccc3)c(Cl)c2c1)c1ccccn1 (stereo not shown) [Example 27]
Endpoint returns the given compounds ordered by ascending Kd. Please, when replying, give the labels in the order that was requested.
a, b, c

Origin of measurements: patent US9309222B2
